Target: T1, Bbc1, P47068
T1 sequence (P47068 1-78, looked up): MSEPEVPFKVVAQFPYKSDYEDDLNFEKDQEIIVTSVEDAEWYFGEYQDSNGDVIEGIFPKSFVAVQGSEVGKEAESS
Experiment: SPOT array
Conditions: median of control spots 796
Please provide measured SPOT intensity for the entries that follow.
One number for each entry.

# BINDER, SPOT intensity
records = [
    ("TSFKGRPKPPKTLKH", 5),
    ("TYNRTAFQIPGDQSI", 0),
    ("RMVRRRPLRVQFSAR", 235),
    ("HKVLRPFLLRRLKKD", 333),
]

Required: SPOT intensity, one value per binder below.
1. RRSKSLPITPKSIFN
2. LLLLFVPDSPYDPAI
3. KNPRRQLQIPRQQPS
4. DLFKPLPEPPTELGR
5. PPLPRAPPVPPATFE
6. NRPAIRIPSLKKPAL

A.
1. 15
2. 0
3. 46
4. 0
5. 3
6. 40

Required: SPOT intensity, one value per binder below.
1. VQQDSLPKLPFRSWG
2. HRRRRVFSIPSLKSI
3. SSSSTPPTLPPRRIE
4. QTREPNEPPPPSPAM
5. RLSFFFPLDPAYIRN
6. QRIRKIPGIPLMSVG
7. NLPKRKPPKLQGPFS
8. NRLRKRLNLPSEISI

A.
[5, 395, 11, 0, 12, 16, 31, 74]

Required: SPOT intensity, one value per binder below.
1. EVTPKVPERPSRRKT
2. WTQRRGPLVVYAEDN
3. AHFQPQRTAPKPPIS
4. SSTPTTPERPKRKSG
5. FLIKFTPKFPQSIDH
6. NLDRSKISLPDFDDE
7. RAPPPVPKKPSSRIA

A.
[1070, 0, 101, 559, 44, 15, 116]

Required: SPOT intensity, one value per binder below.
1. DKSRPPRPPPKPLHL
2. VATSTSPKLPPRGKQ
3. LPPPPPPPPPPPLPQ
4. MPAPPPPPPPPPGAF
5. MKRSRPSRSIPYTTP

A.
5
23
0
0
25

Taken from paper PMC2756588.
